The reported numbers originate from paper PMC8541992.

- procedure_summary: Phase 1 study: single- and multiple-dose plasma pharmacokinetics
- Assay type: in vivo, human (Japanese patients)
- particulars: human, plasma, po, 1 mg, plasma, single dose 1 mg oral, N = 6; mean (standard deviation); read-out: t1/2 (terminal half-life) (converted)

compound_structure_string	half-life, h
Cn1ncnc1[C@H]1c2n[nH]c(=O)c3cc(F)cc(c23)N[C@@H]1c1ccc(F)cc1	50.7

----------
- procedure_summary: Phase 1 study: single- and multiple-dose plasma pharmacokinetics
- Type: in vivo, human (Japanese patients)
- particulars: human, plasma, po, 1 mg, plasma, single dose 1 mg oral, N = 6; median (range); read-out: Tmax
property: Tmax (min)

compound_structure_string	property	reported
Cn1ncnc1[C@H]1c2n[nH]c(=O)c3cc(F)cc(c23)N[C@@H]1c1ccc(F)cc1	Tmax	58.2

----------
- procedure_summary: Phase 1 study: single- and multiple-dose plasma pharmacokinetics
- Format: in vivo, human (Japanese patients)
- particulars: human, plasma, po, 0.75 mg, multiple dose 0.75 mg QD oral, N = 3; geometric mean (geometric %CV)

molecule	Cmax [ng/mL]
Cn1ncnc1[C@H]1c2n[nH]c(=O)c3cc(F)cc(c23)N[C@@H]1c1ccc(F)cc1 [Talazoparib, talazoparib]	14.4
